Organism: Homo sapiens
Assay procedure: To identify inhibition of the IFN signalling (Jak-Stat) pathway via expression of an eGFP reporter gene under the control of an IFN-stimulated response element (ISRE) containing MxA promoter.
Format: functional
Design: scale not given: direction of the effect not stated beside the values
Recorded conditions: 30 µM
Sorting guide: entries reporting Percent Effect beneath 10% go in the rule met pile, the rest go in the rule not met pile.

Could you please tell me whether Percent Effect recorded for O=C(NCCCNc1ccccc1)c1scnc1Cl is less than 10%?
rule not met

Could you please tell me whether Percent Effect recorded for NCc1cn(-c2ccccc2C(=O)NCc2cccc(Cl)c2)cn1 is less than 10%?
rule met

###

Test target: AMP-activated protein kinase, AMPK (Homo sapiens) (UniProt P54646+O43741+P54619+Q9UGJ0+Q9Y478+Q13131+Q9UGI9)
Assay procedure: AMP-dependent Kinase enzyme assay. An in vitro enzyme assay that detects ADP turnover that is directly proportional to AMPK activity. This uses naive AMPK that is activated during the assay with MK-8722
Format: functional
Parameters: scale not given: direction of the effect not stated beside the values
Recorded conditions: 30 µM
Please respond with reported Percent Effect for every item in the list.
Answers are plain numbers, in %.

Guide cases for Percent Effect, answers given:
{"Compound": "O=C(NC1CCCN(Cc2c(F)cccc2F)C1)c1cnccn1 (stereo not given)", "Measurement name": "Percent Effect", "Recorded measurement": 6.06}
{"Compound": "Cc1cc(C(=O)N(C)CCN(C)C(=O)OC(C)(C)C)oc1C", "Measurement name": "Percent Effect", "Recorded measurement": 5.9}
{"Compound": "COc1ccc2c(c1)CCCN(C(=O)NCC1CCCO1)C2 (stereo not given)", "Measurement name": "Percent Effect", "Recorded measurement": 5.17}

Quick one: give me Percent Effect for each item below, same order please.
1. COC(=O)N1CCCCC1C(=O)N1CCN(c2cccnc2)CC1 (stereo not given)
2. Cc1ccc(C(NC(=O)CCCN2CCCCC2)C(=O)O)cc1 (stereo not given)
3. COCCN1CCCC2(CCN(c3cc(C)c(C#N)c(C)n3)C2)C1=O (stereo not given)
4. CC(C)c1noc(C(C)N2CCC(c3nc4ccccc4o3)CC2)n1 (stereo not given)
5. CCC(C)(CC(=O)OC)NCc1noc(C)n1 (stereo not given)

1: -4.3; 2: 11.8; 3: -7.22; 4: 0.506; 5: 1.21

Quick one: give me Percent Effect for each item below, same order please.
1. NC(=O)CN1C[C@@H](c2ccccc2F)[C@@]2(CCCCC(=O)N2)C1
2. Cc1cc(C(=O)N2CC[C@@]3(O)CCN(S(C)(=O)=O)C[C@H]3C2)c(C)n1C

1. 15.1
2. 3.49

###

Test target: Sialic acid-binding Ig-like lectin 9 (Homo sapiens) (UniProt Q9Y336)
Sequence (Q9Y336 whole entry): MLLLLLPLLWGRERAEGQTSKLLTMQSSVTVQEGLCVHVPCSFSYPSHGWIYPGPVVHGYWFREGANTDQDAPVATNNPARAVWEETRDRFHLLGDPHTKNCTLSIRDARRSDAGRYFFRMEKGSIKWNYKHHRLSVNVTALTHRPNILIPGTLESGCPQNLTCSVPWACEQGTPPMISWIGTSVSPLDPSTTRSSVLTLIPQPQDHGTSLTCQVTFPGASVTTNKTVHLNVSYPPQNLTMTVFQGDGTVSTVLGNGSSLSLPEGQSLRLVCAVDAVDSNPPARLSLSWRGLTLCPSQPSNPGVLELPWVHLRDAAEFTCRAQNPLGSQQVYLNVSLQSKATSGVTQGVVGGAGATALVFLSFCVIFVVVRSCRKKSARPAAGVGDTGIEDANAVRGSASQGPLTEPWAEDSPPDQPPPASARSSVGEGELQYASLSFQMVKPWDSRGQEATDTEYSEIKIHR
Assay procedure: Hs-Siglec9 ALPHAscreen SOP 20170721
Parameters: scale not given: direction of the effect not stated beside the values
Recorded conditions: 10 µM
Measurement name: Percent Effect

Guide cases for Percent Effect, answers given:
{"Compound": "CC(C)c1nc(C2CCCN2Cc2ccn(C)c(=O)c2)no1 (centres undefined)", "Percent Effect": "1.98%"}
{"Compound": "Cc1csc2ncc(-c3ccnc(N4CCCC[C@@H]4CO)n3)c(=O)n12", "Percent Effect": "-2.59%"}
{"Compound": "Cc1ncnc(NCc2cc3n(n2)CCCN(S(C)(=O)=O)C3)c1C", "Percent Effect": "3.12%"}
{"Compound": "COc1ccc(CNCc2ccnc(N3CCCCC3)c2)cc1OC", "Percent Effect": "3.59%"}
{"Compound": "O=C(NCC(=O)N1CCCCC1)c1ccoc1", "Percent Effect": "0.0749%"}
{"Compound": "O=C1CO[C@@H]2CN(Cc3cccs3)C[C@H]2N1CC1CC1", "Percent Effect": "-2.08%"}
{"Compound": "O=C(O)c1csc(S(=O)(=O)Nc2cccc(OC(F)F)c2)c1", "Percent Effect": "-2.43%"}
{"Compound": "COCCc1ncc(CN2CCC(Oc3ccccc3C)CC2)cn1", "Percent Effect": "7.21%"}

Lab note: next compound to report on.
Short answer please: Percent Effect, Sialic acid-binding Ig-like lectin 9 (Homo sapiens) (UniProt Q9Y336), entry CC(C)CN1CCC2(CCN(Cc3ccoc3)CC2)C1=O
3.42%

###

Test target: AMP-activated protein kinase, AMPK (Homo sapiens) (UniProt P54646+O43741+P54619+Q9UGJ0+Q9Y478+Q13131+Q9UGI9)
Assay procedure: AMP-dependent Kinase enzyme assay. An in vitro enzyme assay that detects ADP turnover that is directly proportional to AMPK activity. This uses naive AMPK that is activated during the assay with MK-8722
Assay type: functional
Design: scale not given: direction of the effect not stated beside the values
Recorded conditions: 30 µM
Measurement name: Percent Effect
Quick note: number first, unit second.

Guide cases for Percent Effect, answers given:
{"Compound": "Cc1ccc(C2CSCCN2CCS(C)(=O)=O)cc1 (centres undefined)", "Percent Effect": "-3.45%"}
{"Compound": "NC(=O)C1CCCN1Cc1nccn1CC(F)(F)F (centres undefined)", "Percent Effect": "1.35%"}
{"Compound": "Cc1nc(C(C)C)sc1C(C)N(C)C(=O)c1ccc(=O)n(C)n1 (centres undefined)", "Percent Effect": "-6.04%"}

Lab note: next compound to report on.
What value of measured Percent Effect is listed for O=C1OCCN1Cc1nc(C2(c3ccc(F)cc3)CCOC2)no1 (centres undefined) ?
8.23%

###

Please respond with reported Percent Effect for every item in the list.
Test target: AMP-activated protein kinase, AMPK (Homo sapiens) (UniProt P54646+O43741+P54619+Q9UGJ0+Q9Y478+Q13131+Q9UGI9)
Assay procedure: AMP-dependent Kinase enzyme assay. An in vitro enzyme assay that detects ADP turnover that is directly proportional to AMPK activity. This uses naive AMPK that is activated during the assay with MK-8722
Format: functional
Set-up: scale not given: direction of the effect not stated beside the values
Recorded conditions: 30 µM
Give bare numbers, in %.

Quick one: give me Percent Effect for each item below, same order please.
1. CCc1ccsc1C(=O)NC(C#N)CC (configuration not stated)
2. Cc1cc(N2CCC3(CCCN(CCO)C3=O)C2)nc2cc(Cl)ccc12 (configuration not stated)

1: 2.87; 2: 10

Quick one: give me Percent Effect for each item below, same order please.
1. CC(C)c1nc(CN(C)Cc2ncccc2C(=O)O)cs1
2. CCN(CC)C(=O)CS(=O)(=O)c1cc(OC)c(OC)cc1C
3. CS(=O)(=O)NCC1(O)CCCN(C(=O)CCn2cc(Cl)cn2)CC1 (configuration not stated)
4. COc1ccc(CCN(C)C(=O)CN2C(=O)OC[C@@H]2C(C)C)cc1OC
5. CCCn1cc(CN2CCOCC2c2[nH]ncc2C)cn1 (configuration not stated)
6. Cc1cc(-n2cccn2)ccc1CN1CCOCC(CN(C)C)C1 (configuration not stated)

[4.59, 3.6, -0.47, 4.03, 14.3, -0.486]

Quick one: give me Percent Effect for each item below, same order please.
1. CCc1oc(C(=O)N[C@@H]2c3ccccc3C[C@@H]2O)cc1C
2. Cc1nnc(-c2cccc(C#N)c2)n1C1CCN(C(C)C)C1=O (configuration not stated)
3. Cc1nc(N)nc(C)c1CC(=O)N1CCC2(CC1)OCCCC2O (configuration not stated)
4. CCn1c(C2CCNCC2)nn(CCn2ccc(C)n2)c1=O

1: -3; 2: 7.44; 3: 73.8; 4: 5.45

###

Test target: AMP-activated protein kinase, AMPK (Homo sapiens) (UniProt P54646+O43741+P54619+Q9UGJ0+Q9Y478+Q13131+Q9UGI9)
Assay procedure: AMP-dependent Kinase enzyme assay. An in vitro enzyme assay that detects ADP turnover that is directly proportional to AMPK activity. This uses naive AMPK that is activated during the assay with MK-8722
Assay type: functional
Set-up: scale not given: direction of the effect not stated beside the values
Recorded conditions: 30 µM
Measurement name: Percent Effect (%)
Numbers only, in %.

{"Compound": "CNc1nc(C(=O)NCC2CCOc3ccccc3C2)cs1 (centres undefined)", "Readout units": "%", "Percent Effect": 1.74}
{"Compound": "CCn1c(C2CCN(C(=O)c3ccc4cc[nH]c4c3)CC2)n[nH]c1=O", "Readout units": "%", "Percent Effect": -10.8}
{"Compound": "c1ccc(CCN2CCN(C3CCOC4(CCOCC4)C3)CC2)cc1 (centres undefined)", "Readout units": "%", "Percent Effect": -8.46}

Quick one: give me Percent Effect for each item below, same order please.
1. COCC[C@]1(O)CCN(Cc2ccccn2)C[C@H]1C
2. Cc1cc(N(C)CC2COc3ccccc3O2)nc(N)n1 (centres undefined)
3. O=C(NCc1cccnc1N1CCCCC1)c1ccc2c(c1)OCO2
4. CCOc1ccc(Oc2cc(CN)ccn2)cc1
5. CN1C[C@H](c2ccccc2)[C@H]2CN(C(=O)Cc3ccc(O)cc3)CC[C@H]21
6. Cc1cc(C(=O)N2CCC(CCC(=O)NCCN(C)C)CC2)ccc1O

5.38
2.34
-2.38
-43.1
4.46
21.5
